- measurement.notes: In vitro cytotoxicity, fluorescent Resazurin assay
- recorded.conditions: human, HL-60 cells (human promyelocytic leukemia), In Vitro Cytotoxicity (IC50, µM) HL-60, 72 h incubation, 1–30 µM tested, mean ± SD
Here the recorded IC50 at 72 h is given for each entry.
quantity: IC50 at 72 h (µM)

- smiles.data: "CCCCOP(=O)(OCCCC)c1c(-c2ccccc2)nnn1Cc1ccccc1"
  operator.symbol: ">"
  experimental.result: 30
- smiles.data: "CCCCOP(=O)(OCCCC)c1c(-c2ccccc2)nnn1Cc1cccc(F)c1"
  operator.symbol: "="
  experimental.result: 15.4
- smiles.data: "CCCCOP(=O)(OCCCC)c1c(-c2ccccc2)nnn1Cc1ccc(F)cc1"
  operator.symbol: "="
  experimental.result: 16.6
- smiles.data: "CC(C)OP(=O)(OC(C)C)c1c(-c2ccccc2)nnn1Cc1ccccc1"
  operator.symbol: ">"
  experimental.result: 30
- smiles.data: "CCCCCOP(=O)(OCCCCC)c1c(-c2ccccc2)nnn1Cc1ccccc1"
  operator.symbol: "="
  experimental.result: 15.4
- smiles.data: "CCCCOP(=O)(OCCCC)c1c(-c2ccccc2)nnn1Cc1ccccc1F"
  operator.symbol: "="
  experimental.result: 11.7
- smiles.data: "CCCOP(=O)(OCCC)c1c(-c2ccccc2)nnn1Cc1ccccc1"
  operator.symbol: "="
  experimental.result: 12.6
- smiles.data: "CCCCCCCCn1nnc(-c2ccccc2)c1P(=O)(OCCCC)OCCCC"
  operator.symbol: ">"
  experimental.result: 30
- smiles.data: "CCCCOP(=O)(OCCCC)c1c(-c2ccccc2)nnn1Cc1ccc(C)cc1"
  operator.symbol: ">"
  experimental.result: 30

----------
- Test system: HL-60 cells (human promyelocytic leukemia)
- measurement.notes: In vitro cytotoxicity, fluorescent Resazurin assay
- recorded.conditions: read-out: In Vitro Cytotoxicity (IC50, µM) HL-60; 72 h incubation, 1–30 µM tested, mean ± SD
quantity: IC50 (µM)

- molecule: "CCCCOP(=O)(OCCCC)c1c(-c2ccccc2)nnn1Cc1ccc(C(F)(F)F)cc1 [Compound 22]"
  endpoint.unit: "µM"
  experimental.result: 9.7
- molecule: "COP(=O)(OC)c1c(-c2ccccc2)nnn1Cc1ccc(C)cc1 [Compound 16]"
  endpoint.unit: "µM"
  experimental.result: 11

----------
# maps each entry to its IC50 at 72 h
- measurement.notes: in vitro
- recorded.conditions: mouse, NIH/3T3 cells (mouse fibroblast)

- compound: "CCCCOP(=O)(OCCCC)c1c(-c2ccccc2)nnn1Cc1ccc(F)cc1 [Compound 21]"
  operator.symbol: ">"
  IC50 at 72 h (µM): 30
- compound: "CCCCCCCCn1nnc(-c2ccccc2)c1P(=O)(OCCCC)OCCCC [Compound 25]"
  operator.symbol: ">"
  IC50 at 72 h (µM): 30
- compound: "CC(C)OP(=O)(OC(C)C)c1c(-c2ccccc2)nnn1Cc1ccccc1 [Compound 14]"
  operator.symbol: ">"
  IC50 at 72 h (µM): 30
- compound: "CCCCOP(=O)(OCCCC)c1c(-c2ccccc2)nnn1Cc1ccc(C)cc1 [Compound 18]"
  operator.symbol: ">"
  IC50 at 72 h (µM): 30
- compound: "CCCCOP(=O)(OCCCC)c1c(-c2ccccc2)nnn1Cc1ccc(C(F)(F)F)cc1 [Compound 22]"
  operator.symbol: "="
  IC50 at 72 h (µM): 23.1
- compound: "CCCOP(=O)(OCCC)c1c(-c2ccccc2)nnn1Cc1ccccc1 [Compound 13]"
  operator.symbol: ">"
  IC50 at 72 h (µM): 30
- compound: "CCCCOP(=O)(OCCCC)c1c(-c2ccccc2)nnn1Cc1ccccc1F [Compound 19]"
  operator.symbol: "="
  IC50 at 72 h (µM): 27.5
- compound: "CCCCOP(=O)(OCCCC)c1c(-c2ccccc2)nnn1Cc1ccccc1 [Compound 8]"
  operator.symbol: "="
  IC50 at 72 h (µM): 27.5
- compound: "CCCCOP(=O)(OCCCC)c1c(-c2ccccc2)nnn1Cc1cccc(F)c1 [Compound 20]"
  operator.symbol: ">"
  IC50 at 72 h (µM): 30
- compound: "CCCCCOP(=O)(OCCCCC)c1c(-c2ccccc2)nnn1Cc1ccccc1 [Compound 15]"
  operator.symbol: "="
  IC50 at 72 h (µM): 26.2
